- EXPERIMENTAL_SYSTEM: Histidine--tRNA ligase (Leishmania infantum) (UniProt A4I591)
- Sequence (whole entry): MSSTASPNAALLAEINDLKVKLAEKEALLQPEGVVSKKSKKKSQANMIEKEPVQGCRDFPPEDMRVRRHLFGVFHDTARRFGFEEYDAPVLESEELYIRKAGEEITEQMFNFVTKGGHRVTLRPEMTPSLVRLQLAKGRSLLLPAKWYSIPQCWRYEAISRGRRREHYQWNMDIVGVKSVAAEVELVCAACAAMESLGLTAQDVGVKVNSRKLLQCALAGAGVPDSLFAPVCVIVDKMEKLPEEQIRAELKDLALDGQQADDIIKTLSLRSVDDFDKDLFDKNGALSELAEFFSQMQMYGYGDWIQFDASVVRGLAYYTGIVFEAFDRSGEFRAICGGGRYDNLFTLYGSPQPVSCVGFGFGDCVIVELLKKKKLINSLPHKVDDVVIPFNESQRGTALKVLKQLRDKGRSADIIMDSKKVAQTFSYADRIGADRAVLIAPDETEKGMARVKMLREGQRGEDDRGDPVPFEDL
- METHOD_DESCRIPTION: Leishmania infantum Histidine tRNA synthetase (LdHisRS)
- Assay type: functional
- Set-up: scale not given: in the data most compounds retested in dose-response had high values
- CONDITION_INFO: 30 µM
Screen size: about 69,000 compounds; about 420 (0.61%) showed an effect of 50% or more. For the sample, strong results were picked, then their nearest neighbours and some compounds at random.
Record form. Attribute: Percent Effect. Fill in for each entry.
One number for each entry, in %.

SMILES_STRUCTURE | OUTPUT_UNIT | Percent Effect
CN(C)S(=O)(=O)N1CC[C@]2(O)CCN(c3cc(C#N)ccn3)C[C@@H]2C1 | % | 15.7

Give Percent Effect for each listed item.
1. O=C(NCC1(O)CCC1)c1c(O)cc(F)cc1F
2. CCCC(=O)N1CC[C@@H]2[C@H](CC1)N(Cc1cccnc1)CCS2(=O)=O
3. Cc1ccc(OCC(=O)N2C[C@@H]3CN(C)CCO[C@@H]3C2)cc1
4. Cc1cc(C(=O)N2C[C@H]3CC[C@@H]2CN(C)C3)ccc1Cl

Response:
[-2.17, 17.3, 5.17, 7.14]

====

- EXPERIMENTAL_SYSTEM: Histidine--tRNA ligase (Leishmania infantum) (UniProt A4I591)
- METHOD_DESCRIPTION: Leishmania infantum Histidine tRNA synthetase (LdHisRS)
- Assay type: functional
- Set-up: scale not given: in the data most compounds retested in dose-response had high values
- CONDITION_INFO: 30 µM
The whole screen tested about 69,000 compounds, of which about 420 (0.61%) showed an effect of 50% or more. What follows is part of a selection rich in strong results, with near analogues and random picks from the rest.
Record form. Attribute: Percent Effect. Fill in for each entry.
Numbers only, in %.

Guide cases for Percent Effect, answers given:
MOLECULE | EXPERIMENTAL_SYSTEM | OUTPUT_UNIT | Percent Effect
CN(Cc1nc(N)c2ccccc2n1)CC1CCCN1c1cccnn1 (centres undefined) | Histidine--tRNA ligase (Leishmania infantum) (UniProt A4I591) | % | 21.3
Cc1nnc(NCc2ccccc2S(=O)(=O)N(C)C)c(C#N)c1C | Histidine--tRNA ligase (Leishmania infantum) (UniProt A4I591) | % | 22
c1cncc(COCC2C[C@@H]3OCCN(Cc4cccnc4)[C@H]3C2)c1 (some centres undefined) | Histidine--tRNA ligase (Leishmania infantum) (UniProt A4I591) | % | 28.3
Cc1ncsc1CN1C[C@@H]2CN(S(C)(=O)=O)CCO[C@@H]2C1 | Histidine--tRNA ligase (Leishmania infantum) (UniProt A4I591) | % | 20
O=S1(=O)C[C@@H]2[C@H](C1)N(Cc1cc(F)cc(Cl)c1)CCN2CCO | Histidine--tRNA ligase (Leishmania infantum) (UniProt A4I591) | % | 0

Give Percent Effect for each listed item.
1. Cc1cc(-c2nn(C)c(Cl)c2CN2Cc3ccccc3C(O)C2)no1 (centres undefined)
2. CC(C)N1CCN2C(=O)N(C3CCCCC3)C[C@H]2C1
3. Cc1n[nH]c(CN2CCN(Cc3ccccc3)[C@@H]3CS(=O)(=O)C[C@@H]32)n1
4. CCO[C@@H]1C[C@H]2CN(S(=O)(=O)c3cccs3)CCN2C1
5. Cc1nc(CN(C)CC2CCCN2c2cccnn2)nc2ccccc12 (centres undefined)

Response:
1. 66.7
2. 18.9
3. 32
4. 7.89
5. 74.4

Give Percent Effect for each listed item.
1. Cc1cccc(N2Cc3nc(=O)n(Cc4cccc(F)c4)n3C2=O)c1
2. Cc1nc(N2CCCC2)nc2c1CCN(C(=O)C1CCC1)CC2
3. Cc1nnc(NCc2cccnc2N(C)C)c(C#N)c1C
4. Cc1ccc(CN2C[C@@H]3C[C@H](C(=O)NCC4CC4)N(C)[C@@H]3C2)o1
5. Cn1nc2c(cc1=O)CN(c1ncnc3ccsc13)CC2
6. Cc1noc(C)c1C(=O)N1C[C@@H]2CCCO[C@@H]2[C@H](N(C)C)C1
7. Cc1nnc(NCC(c2ccco2)N(C)C)c(C#N)c1C (centres undefined)
8. O=C(O)c1ccccc1-c1ccc(CN2CC(c3ccncn3)C2)o1

Response:
1. 14.1
2. 51.3
3. 15.4
4. 10.1
5. 100
6. 7.96
7. 54.8
8. 29.4

Request: Entry under review: "O=c1c(C(F)(F)F)cccn1Cc1nnc(-c2cccnc2)o1" . Reported Percent Effect?
Response: 11.5

Data credit: ChEMBL document CHEMBL3988442
